FYI, the data here is from patent US9321774B2.

Quick list: log10 MIC per entry.
Tested on: community-associated MRSA isolate USA300
Assay: CLSI broth microplate assay, MIC
Assay type: cell-based
Settings: Staphylococcus aureus, read-out: Minimum inhibitory concentration (MIC mg/L) USA300
reportedMetric: log10 MIC (log10 of the value in mg/L)

molecule | studySystem | log10 MIC
COc1cc2c(cc1OCCCC(=O)Nc1cc(C(=O)Nc3ccc(N4CCOCC4)nc3)n(C)c1)N=C[C@@H]1CCCN1C2=O [Compound 31] | community-associated MRSA isolate USA300 | 0.00
COC(=O)c1cc(NC(=O)c2cc(-c3ccc(NC(=O)CCCOc4cc5c(cc4OC)C(=O)N4CCC[C@H]4C=N5)cc3)co2)cn1C [Compound 54] | community-associated MRSA isolate USA300 | -1.22
COC(=O)c1cc(-c2ccc(NC(=O)c3cc(-c4ccc(NC(=O)CCCOc5cc6c(cc5OC)C(=O)N5CCC[C@H]5C=N6)cc4)co3)cc2)cn1C [Compound 56] | community-associated MRSA isolate USA300 | 0.00
COC(=O)c1cc2cc(NC(=O)c3cc(NC(=O)CCCOc4cc5c(cc4OC)C(=O)N4CCC[C@H]4C=N5)cn3C)ccc2s1 [Compound 28] | community-associated MRSA isolate USA300 | -1.22
COc1cc2c(cc1OCCCC(=O)Nc1cc(C(=O)Nc3ccc(N4CCOCC4)cc3)n(C)c1)N=C[C@@H]1CCCN1C2=O [Compound 30] | community-associated MRSA isolate USA300 | -0.30
COc1cc2c(cc1OCCCC(=O)Nc1ccc(-c3cc(C(=O)Nc4ccc(OCCN5CCOCC5)cc4)n(C)c3)cc1)N=C[C@@H]1CCCN1C2=O [Compound 51] | community-associated MRSA isolate USA300 | 0.30
COc1cc2c(cc1OCCCC(=O)Nc1ccc(-c3cc(C(=O)Nc4ccc(N5CCOCC5)cc4)n(C)c3)cc1)N=C[C@@H]1CCCN1C2=O [Compound 49] | community-associated MRSA isolate USA300 | 0.30
COc1cc2c(cc1OCCCC(=O)Nc1cc(C(=O)Nc3ccc4occc4c3)n(C)c1)N=C[C@@H]1CCCN1C2=O [Compound 26] | community-associated MRSA isolate USA300 | -0.90
COc1cc2c(cc1OCCCC(=O)Nc1cn(C)c(C(=O)Nc3ccc(N4CCOCC4)nc3)n1)N=C[C@@H]1CCCN1C2=O [Compound 40] | community-associated MRSA isolate USA300 | -0.90
COc1cc2c(cc1OCCCC(=O)Nc1ccc(-c3cc(C(=O)Nc4ccc(N5CCOCC5)nc4)n(C)c3)cc1)N=C[C@@H]1CCCN1C2=O [Compound 53] | community-associated MRSA isolate USA300 | 0.60
COc1cc2c(cc1OCCCC(=O)Nc1ccc(-c3cc(C(=O)NCc4ccc(OCCN5CCOCC5)cc4)n(C)c3)cc1)N=C[C@@H]1CCCN1C2=O [Compound 52] | community-associated MRSA isolate USA300 | 0.60
COc1cc2c(cc1OCCCC(=O)Nc1cn(C)c(C(=O)Nc3ccc(N4CCOCC4)cc3)n1)N=C[C@@H]1CCCN1C2=O [Compound 37] | community-associated MRSA isolate USA300 | -0.90
COC(=O)c1cc2cc(NC(=O)c3nc(NC(=O)CCCOc4cc5c(cc4OC)C(=O)N4CCC[C@H]4C=N5)cn3C)ccc2s1 [Compound 35] | community-associated MRSA isolate USA300 | -1.22
COC(=O)c1ccc(-c2ccc(NC(=O)CCCOc3cc4c(cc3OC)C(=O)N3CCC[C@H]3C=N4)cc2)s1 [Compound 18, reference compound] | community-associated MRSA isolate USA300 | 1.51
COc1cc2c(cc1OCCCC(=O)Nc1cn(C)c(C(=O)Nc3ccc(OCCN4CCOCC4)cc3)n1)N=C[C@@H]1CCCN1C2=O [Compound 39] | community-associated MRSA isolate USA300 | -0.30
